Tested on: Micrococcus luteus
protocol notes: Antibacterial activity against Micrococcus luteus ATCC 4698 after 18 to 24 hrs by CLSI two fold serial dilution method
Assay type: functional
Rule: MIC below 300 µM gives label 1. Equal to or above 300 µM gives label 0.

Observe how each entry below is paired with its result.
- molecule: "CCCCCCCCOc1c(OC)cc(/C=N/Nc2nccs2)c2c1CN1CCc3cc4c(cc3C1C2)OCO4 (centres undefined)"
  class assignment: "label 0"
- molecule: "COc1cc(/C=N/NC(N)=S)c2c(c1OCc1ccccc1Cl)CN1CCc3cc4c(cc3C1C2)OCO4 (centres undefined)"
  class assignment: "label 1"
- molecule: "CCCCCCOc1c(OC)cc(/C=N/Nc2nccs2)c2c1CN1CCc3cc4c(cc3C1C2)OCO4 (centres undefined)"
  class assignment: "label 1"
- molecule: "COc1cc(/C=N/Nc2nccs2)c2c(c1O)CN1CCc3cc4c(cc3C1C2)OCO4 (centres undefined)"
  class assignment: "label 1"
- molecule: "CCn1cc(C(=O)O)c(=O)c2cc(F)c(N3CCNCC3)cc21 [NORFLOXACIN]"
  class assignment: "label 1"
- molecule: "CCOc1c(OC)cc(/C=N/NC(N)=S)c2c1CN1CCc3cc4c(cc3C1C2)OCO4 (centres undefined)"
  class assignment: "label 1"
- molecule: "COc1cc(/C=N/Nc2nccs2)c2c(c1OCc1ccc(Cl)c(Cl)c1)CN1CCc3cc4c(cc3C1C2)OCO4 (centres undefined)"
  class assignment: "label 0"

# input Lab note: MIC threshold 300 µM. Does this molecule come in strictly under it? C=CCOc1c(OC)cc(/C=N/NC(N)=S)c2c1CN1CCc3cc4c(cc3C1C2)OCO4 (centres undefined)
# output label 1
